Where do these numbers come from? They come from PubChem BioAssay (NCI).

test: NCI Yeast Anticancer Drug Screen. Data for the mlh1 rad18 strain (AID 175); settings: S. cerevisiae mlh1 rad18 strain growth inhibition; at 50.0 µM (retest, dose inferred, filed as 5.0)
About 79,000 compounds went through this panel and 15% of them were active in at least one assay; those are over-represented in the sample as a whole. Calls of active or inactive are those of the source. No stated cut-off is given here; in the data, active means growth inhibition above about 70%; inactive means the rest.
Mark one answer only. Choices: 1 = active, -1 = inactive

Asked: Please indicate how the test categorized CC1=C(C)CC2C(=O)C(C(O)CC(C)C)=CC(=O)C2C1 (stereo unspecified) .
Given back: 1

Asked: Please indicate how the test categorized "COc1cc2c(cc1OC)-c1nc(N)sc1CC2" .
Given back: -1

Asked: Please indicate how the test categorized "CC1=C(C)CC(C#N)(C#N)C(C#N)(C#N)C1" .
Given back: 1

Asked: Please indicate how the test categorized CN(/N=C\c1ccc(Cl)cc1)C(c1ccc(Cl)cc1)N(C)/N=C/c1ccc(Cl)cc1 (stereo unspecified) .
Given back: 1

Asked: Please indicate how the test categorized C=CCCCCO/N=C/c1c2c(O)c3c(O)c(C)c4c(c3c1O)C(=O)C(C)(O/C=C/C(OC)C(C)C(OC(C)=O)C(C)C(O)C(C)C(O)C(C)/C=C/C=C(\C)C(=O)N2)O4 (stereo unspecified) .
Given back: 1

Asked: Please indicate how the test categorized "Cn1c(=O)c2c(ncn2-c2ccncc2)n(C)c1=O" .
Given back: -1

Asked: Please indicate how the test categorized "O=C(COC(=O)c1ccc(O)cc1)c1ccc(-c2ccccc2)cc1" .
Given back: -1

Asked: Please indicate how the test categorized "CCCCc1ccc(Nc2nc(N)c3[nH]cnc3n2)cc1" .
Given back: -1

Asked: Please indicate how the test categorized Oc1ccc(C2SC(c3ccc(O)cc3)SC(c3ccc(O)cc3)S2)cc1 (stereo unspecified) .
Given back: 1

Asked: Please indicate how the test categorized "COc1ccc(C(c2ccc(OC)c(OC)c2)C(Cl)(Cl)Cl)cc1OC" .
Given back: 1

Asked: Please indicate how the test categorized CC(C)C1(Cl)CCC2C3(C)CCCC(C)(C(=O)O)C3CC(Cl)C2(Cl)C1Cl (stereo unspecified) .
Given back: 1

Asked: Please indicate how the test categorized CC(CCC(=O)O)(Nc1ccc([N+](=O)[O-])cc1[N+](=O)[O-])C(=O)O (stereo unspecified) .
Given back: 1

Asked: Please indicate how the test categorized "O=C1c2ccccc2-c2cc([N+](=O)[O-])c([N+](=O)[O-])cc21" .
Given back: 1

Asked: Please indicate how the test categorized CCOC(=O)/C=C(\NC1CC(OC2C[C@](O)(C(C)=O)Cc3c(O)c4c(c(O)c32)C(=O)c2c(OC)cccc2C4=O)OC(C)C1O)C(=O)OCC (stereo partly specified) .
Given back: 1

Asked: Please indicate how the test categorized CCC(CC=C(C)C)(CC=C(C)C)c1ccncc1 (tested in a mixture with another compound) .
Given back: 1

Asked: Please indicate how the test categorized COc1cc([C@@H]2c3cc4c(cc3[C@@H](OC3OC5CO[C@@H](c6cccs6)OC5C(O)C3O)[C@H]3COC(=O)[C@H]23)OCO4)cc(OC)c1O (stereo partly specified) .
Given back: 1

Asked: Please indicate how the test categorized CC(=O)O[C@H]1CC[C@]2(C)C34OC3C[C@]3(C)[C@@H](C(C)=O)CC[C@H]3[C@]43C=C[C@@]2(C1)C1C(=O)OC(=O)C13 (stereo partly specified) .
Given back: 1

Asked: Please indicate how the test categorized "Oc1ccc(O)c2c1CC=C(Cl)C2" .
Given back: 1

Asked: Please indicate how the test categorized "CC(=O)N(c1ccccc1)C(C)C" .
Given back: -1

Asked: Please indicate how the test categorized "Cc1ccc2nc(C[n+]3cccc4ccccc43)ccc2c1" .
Given back: 1

Asked: Please indicate how the test categorized "Nc1ccccc1/C=C1/Sc2cc[nH]c2C1=O" .
Given back: -1

Asked: Please indicate how the test categorized "O=[N+]([O-])c1cccc(/C=N/Nc2ccc3ccccc3n2)c1O" .
Given back: -1

Asked: Please indicate how the test categorized COC1=CC(=O)c2c(O)c3c(c(O)c2C1=O)OC1(Oc2c(cc4cc(C)oc(=O)c4c2O)CC1O)C3O (stereo unspecified) .
Given back: 1

Asked: Please indicate how the test categorized "Cc1c(NC(=O)/C(=N/NC(=S)N=N)C2C(=O)CC(C)(C)CC2=O)c(O)c2ccccc2c1O" .
Given back: 1

Asked: Please indicate how the test categorized "O=[N+]([O-])/C=C/c1cc2c(ccc3ccccc32)[nH]1" .
Given back: 1

Asked: Please indicate how the test categorized "O=c1oc2ccccc2c(O)c1/C=N/C(=S)Nc1ccccc1" .
Given back: 1

Asked: Please indicate how the test categorized "NC(=O)C1CCN(N=Nc2c(-c3ccccc3)n[nH]c2-c2ccccc2)CC1" .
Given back: 1

Asked: Please indicate how the test categorized "NN=C(CC(O)(C(F)(F)Cl)C(F)(F)Cl)CC(O)(C(F)(F)Cl)C(F)(F)Cl" .
Given back: 1

Asked: Please indicate how the test categorized "c1cc2cc(Cc3ccc4[nH]ccc4c3)ccc2[nH]1" .
Given back: -1

Asked: Please indicate how the test categorized "O=C(/C=C\c1ccc([N+](=O)[O-])o1)/C=C/c1ccc([N+](=O)[O-])o1" .
Given back: 1

Asked: Please indicate how the test categorized "CC(C)OCc1cccc2ccnc(COC(C)C)c12" .
Given back: -1

Asked: Please indicate how the test categorized "CC(C)=CCC/C(C)=C/CC/C(C)=C/CC/C=C(\C)CC/C=C(\C)CCC[N+](C)(C)[O-]" .
Given back: 1

Asked: Please indicate how the test categorized O=C(O)/C=C/CCC1SCC2NC(=O)NC21 (stereo unspecified) .
Given back: 1

Asked: Please indicate how the test categorized "CN(Cc1cc(Cl)cc(Cl)c1O)Cc1c(O)ccc2ccccc12" .
Given back: 1

Asked: Please indicate how the test categorized "CCCCCCCCCCCCNC(=O)C[n+]1cccc(C(N)=O)c1" .
Given back: 1

Asked: Please indicate how the test categorized CCOC(=O)C1CCC(=O)O1 (stereo unspecified) .
Given back: 1

Asked: Please indicate how the test categorized "Fc1cccc2c1cc1ccc3cccc4ccc2c1c34" .
Given back: -1

Asked: Please indicate how the test categorized "O=[N+]([O-])c1ccccc1N=Nc1c(O)[nH]c2cccc(C(F)(F)F)c12" .
Given back: 1

Asked: Please indicate how the test categorized "O=C1C=CC(=O)c2c(O)c(N3CCN(CCOCCO)CC3)c(Br)c(O)c21" .
Given back: 1

Asked: Please indicate how the test categorized "ClC(Cl)=C1C(=C(Cl)Cl)C(Cl)(Cl)C1(Cl)Cl" .
Given back: 1

Asked: Please indicate how the test categorized Nc1nccc2c1ncn2C1C=C(CO)C(O)C1O (stereo unspecified) .
Given back: 1
